The origin of these recorded values is patent US20230159532A1.

Below, each entry is listed with its recorded Ki.
Target sequence: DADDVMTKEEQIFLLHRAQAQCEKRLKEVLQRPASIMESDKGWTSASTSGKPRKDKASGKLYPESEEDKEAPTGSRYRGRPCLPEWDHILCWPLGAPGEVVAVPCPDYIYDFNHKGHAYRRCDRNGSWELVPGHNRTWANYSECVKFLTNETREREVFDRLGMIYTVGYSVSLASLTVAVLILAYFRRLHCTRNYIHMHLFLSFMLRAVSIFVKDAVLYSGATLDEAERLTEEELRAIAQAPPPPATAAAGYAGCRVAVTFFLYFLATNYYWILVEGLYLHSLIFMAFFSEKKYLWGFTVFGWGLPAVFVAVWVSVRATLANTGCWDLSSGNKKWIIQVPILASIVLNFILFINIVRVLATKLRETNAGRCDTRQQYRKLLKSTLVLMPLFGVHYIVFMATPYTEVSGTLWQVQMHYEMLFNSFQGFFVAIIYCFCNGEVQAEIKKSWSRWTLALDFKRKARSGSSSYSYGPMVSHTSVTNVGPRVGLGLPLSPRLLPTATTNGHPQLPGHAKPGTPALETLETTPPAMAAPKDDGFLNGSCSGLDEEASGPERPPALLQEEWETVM

Reference set (5 entries):
[
  {
    "Compound": "CCN1C(=O)N(c2c(F)cc(NCCNCCCC(=O)O)cc2F)c2cc(C#N)cc(C)c2-c2cc(F)cnc21 [1-68]",
    "Recorded Measurement": "< 100 nM"
  },
  {
    "Compound": "CCN1C(=O)N(c2c(F)cc(NCCNCC(N)=O)cc2F)c2cc(C#N)ccc2-c2cc(Cl)cnc21 [1-162]",
    "Recorded Measurement": "< 100 nM"
  },
  {
    "Compound": "CCN1C(=O)N(c2c(F)cc(NCCNC)cc2F)c2cc(Cl)ccc2-c2cc(C)cnc21 [1-18]",
    "Recorded Measurement": "< 100 nM"
  },
  {
    "Compound": "CCN1C(=O)N(c2c(F)cc(NCCN[C@H](CO)C(=O)O)cc2F)c2cc(C#N)ccc2-c2cc(Cl)cnc21 [1-220]",
    "Recorded Measurement": "< 100 nM"
  },
  {
    "Compound": "Cc1cc(Cl)cc2c1-c1cc(F)cnc1N(C(C)C)C(=O)N2c1c(F)cc(NCCNCCCC(=O)O)cc1F [1-80]",
    "Recorded Measurement": "< 100 nM"
  }
]

Query block: Fill in reported Ki for this entry: CCN1C(=O)N(c2c(F)cc(N3CC[C@H](NC)C3)cc2F)c2cc(C#N)ccc2-c2cc(Cl)cnc21 [1-235]
Result block: < 100 nM

Query block: Identify the reported Ki for the following entry. CCN1C(=O)N(c2ccc(NCCNC3CCOCC3)cc2)c2cc(Cl)ccc2-c2cc(Cl)cnc21 [2-13]
Result block: < 100 nM

Query block: Using known records, supply Ki for CCN1C(=O)N(c2c(F)cc(NCCNCCCC(=O)O)cc2F)c2cc(Cl)cc(F)c2-c2cc(F)cnc21 [1-96]
Result block: < 100 nM

----------
Target protein (sequence): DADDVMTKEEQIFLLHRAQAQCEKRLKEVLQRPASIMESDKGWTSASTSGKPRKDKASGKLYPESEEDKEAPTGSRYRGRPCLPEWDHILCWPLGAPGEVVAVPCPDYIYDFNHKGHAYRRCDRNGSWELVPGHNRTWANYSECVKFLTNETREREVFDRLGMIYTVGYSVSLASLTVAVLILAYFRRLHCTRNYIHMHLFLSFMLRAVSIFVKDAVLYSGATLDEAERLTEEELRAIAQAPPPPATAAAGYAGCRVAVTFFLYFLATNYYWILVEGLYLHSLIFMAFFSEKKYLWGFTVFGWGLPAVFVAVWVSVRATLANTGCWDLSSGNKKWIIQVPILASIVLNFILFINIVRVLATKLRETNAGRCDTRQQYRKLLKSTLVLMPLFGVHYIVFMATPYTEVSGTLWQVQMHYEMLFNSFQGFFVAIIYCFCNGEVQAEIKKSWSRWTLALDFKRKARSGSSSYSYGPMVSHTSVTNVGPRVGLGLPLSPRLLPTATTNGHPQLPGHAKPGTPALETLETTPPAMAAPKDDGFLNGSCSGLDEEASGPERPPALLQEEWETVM
Measured Endpoint: Ki

Examples from the recorded data:
[
  {
    "Compound": "CCN1C(=O)N(c2c(F)cc(NCCNCC3CCCN3)cc2F)c2cc(C#N)ccc2-c2cc(Cl)cnc21 (centres unmarked)",
    "Recorded Measurement": "< 100 nM"
  },
  {
    "Compound": "CCN1C(=O)N(c2c(F)cc(NCCNCCO)cc2F)c2ccccc2-c2cc(Cl)cnc21",
    "Recorded Measurement": "< 100 nM"
  },
  {
    "Compound": "CCN1C(=O)N(c2c(F)cc(NCCNCCO)cc2F)c2nc(C#N)ccc2-c2cc(F)cnc21",
    "Recorded Measurement": "< 100 nM"
  },
  {
    "Compound": "CCN1C(=O)N(c2c(F)cc(NCCNC3CCOCC3)cc2F)c2cc(Cl)ccc2-c2cc(C#N)ncc21",
    "Recorded Measurement": "< 100 nM"
  }
]

Query block: Given `CCN1C(=O)N(c2c(F)cc(NCCNCCO)cc2F)c2cc(Cl)cc(OC)c2-c2cc(F)cnc21` , respond with its Ki.
Result block: < 100 nM

Query block: Supply measured Ki of `CCN1C(=O)N(c2ncc(NCCNC)cc2F)c2cc(Cl)ccc2-c2cc(Cl)cnc21` in your reply.
Result block: < 100 nM

Query block: Annotate the compound `CCN1C(=O)N(c2c(F)cc(N3CCN(CCO)CC3)cc2F)c2cc(C#N)ccc2-c2cc(Cl)cnc21` with its measured Ki.
Result block: < 100 nM

Query block: Query Ki for CCN1C(=O)N(c2c(F)cc(NCCNCC(C)O)cc2F)c2cc(C#N)ccc2-c2cc(Cl)cnc21 (centres unmarked)
Result block: < 100 nM

----------
Sequence of the target: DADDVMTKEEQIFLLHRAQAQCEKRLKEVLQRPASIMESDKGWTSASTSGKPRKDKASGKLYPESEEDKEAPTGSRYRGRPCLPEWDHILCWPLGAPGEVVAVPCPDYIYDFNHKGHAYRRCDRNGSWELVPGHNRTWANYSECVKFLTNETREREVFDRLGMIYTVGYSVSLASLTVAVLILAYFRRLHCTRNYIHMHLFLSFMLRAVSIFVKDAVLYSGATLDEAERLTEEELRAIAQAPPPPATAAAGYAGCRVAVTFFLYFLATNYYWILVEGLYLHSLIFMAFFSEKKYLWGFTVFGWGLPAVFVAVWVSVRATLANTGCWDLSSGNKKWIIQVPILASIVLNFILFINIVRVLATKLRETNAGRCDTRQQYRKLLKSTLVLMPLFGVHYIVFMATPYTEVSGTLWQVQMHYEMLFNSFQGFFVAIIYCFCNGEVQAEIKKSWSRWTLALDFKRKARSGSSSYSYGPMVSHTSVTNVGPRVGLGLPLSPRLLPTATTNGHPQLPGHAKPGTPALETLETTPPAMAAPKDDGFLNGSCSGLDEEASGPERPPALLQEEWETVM
pKi: −log10 of the molar value.
Measured Endpoint: pKi

Below are worked cases with known answers.
[
  {
    "Molecule": "CCN1C(=O)N(c2ccc(NCCNCCO)cc2F)c2cc(Cl)ccc2-c2cc(Cl)cnc21 [2-7]",
    "pKi": "> 7.00"
  },
  {
    "Molecule": "CCN1C(=O)N(c2c(F)cc(N3CCN[C@H](CO)C3)cc2F)c2cc(C#N)ccc2-c2cc(Cl)cnc21 [1-152]",
    "pKi": "6.00 to 7.00"
  },
  {
    "Molecule": "CCN1C(=O)N(c2c(F)cc(NCCNCCCS(=O)(=O)O)cc2F)c2cc(C#N)ccc2-c2cc(Cl)cnc21 [1-175]",
    "pKi": "> 7.00"
  },
  {
    "Molecule": "CNCCNc1cc(F)c(N2C(=O)N(CCO)c3ncc(F)cc3-c3ccc(C#N)cc32)c(F)c1 [1-121]",
    "pKi": "6.00 to 7.00"
  },
  {
    "Molecule": "CCN1C(=O)N(c2c(F)cc(NCCNC(C)CO)cc2F)c2cc(C#N)ccc2-c2cc(Cl)cnc21 (centres unmarked) [1-149]",
    "pKi": "> 7.00"
  },
  {
    "Molecule": "CNCCNc1cc(F)c(N2C(=O)N(C(C)C)c3ncc(Cl)cc3-c3ccc(C#N)cc32)c(F)c1 [1-91]",
    "pKi": "> 7.00"
  }
]

Query block: For the molecule CCN1C(=O)N(c2c(F)cc(NCCNCC(N)CO)cc2F)c2cc(C#N)ccc2-c2cc(Cl)cnc21 (centres unmarked) [1-225] , give its reported pKi.
Result block: > 7.00

Query block: // fetch pKi given entry CCN1C(=O)N(c2c(F)cc(NCCNC[C@H](O)CO)cc2F)c2cc(C#N)ccc2-c2cc(F)cnc21 [1-200]
Result block: > 7.00
